# targetUnderTest: furin, P09958;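 note: purified furin at 1:10 enzyme:substrate in 50 mM HEPES pH 7.5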
# Sequence (P09958 whole entry): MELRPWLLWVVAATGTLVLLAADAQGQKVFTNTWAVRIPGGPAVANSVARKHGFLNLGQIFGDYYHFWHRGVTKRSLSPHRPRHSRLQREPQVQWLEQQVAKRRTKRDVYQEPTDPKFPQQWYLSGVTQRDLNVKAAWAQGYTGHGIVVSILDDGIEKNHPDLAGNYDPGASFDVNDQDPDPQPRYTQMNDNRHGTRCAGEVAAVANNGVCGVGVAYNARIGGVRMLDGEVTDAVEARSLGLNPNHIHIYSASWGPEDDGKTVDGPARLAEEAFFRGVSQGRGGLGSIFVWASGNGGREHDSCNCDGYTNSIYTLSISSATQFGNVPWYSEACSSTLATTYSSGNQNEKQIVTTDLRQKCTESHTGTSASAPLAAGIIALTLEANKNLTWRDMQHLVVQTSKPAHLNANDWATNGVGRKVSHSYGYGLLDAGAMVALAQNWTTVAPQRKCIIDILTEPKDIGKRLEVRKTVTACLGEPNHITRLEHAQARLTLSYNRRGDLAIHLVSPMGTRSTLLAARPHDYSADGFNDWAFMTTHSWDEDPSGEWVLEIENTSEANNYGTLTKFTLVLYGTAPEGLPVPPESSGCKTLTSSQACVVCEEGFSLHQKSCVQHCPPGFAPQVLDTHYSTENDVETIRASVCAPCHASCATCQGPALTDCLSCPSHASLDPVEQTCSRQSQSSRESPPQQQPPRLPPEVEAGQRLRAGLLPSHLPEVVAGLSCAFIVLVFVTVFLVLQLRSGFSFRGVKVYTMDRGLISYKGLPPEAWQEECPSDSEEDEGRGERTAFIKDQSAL
# method: furin cleavage Z-score vs untreated control; higher = more cleavage, active = 3.5 or more, inactive = 1 or less, 8 variable residues between constant flanks
# testConditions: 15 min
This is one part of the list. The hit rate among all sequences tested is not known here.
# Lookup of reported furin cleavage Z-score keyed by entry
readoutName: furin cleavage Z-score

[
  {
    "residueSequence": "CARLRRSLKPAGNASASA [FS-1745]",
    "testResult": 7.63
  },
  {
    "residueSequence": "CARPRRSIVFAGNASASA [FS-3229]",
    "testResult": 5.67
  },
  {
    "residueSequence": "CAGGRHLIFCAGNASASA [HC854]",
    "testResult": -0.469
  }
]
